Hey, just so you know, these numbers are from patent US20240084003A1.

# target.desc: T1, rhesus monkey CD22-ECD-His protein (rhesus monkey, UniProt H9G1X2 18-686)
# T1 construct: extracellular domain; also called monkey CD22 protein
# T1 sequence: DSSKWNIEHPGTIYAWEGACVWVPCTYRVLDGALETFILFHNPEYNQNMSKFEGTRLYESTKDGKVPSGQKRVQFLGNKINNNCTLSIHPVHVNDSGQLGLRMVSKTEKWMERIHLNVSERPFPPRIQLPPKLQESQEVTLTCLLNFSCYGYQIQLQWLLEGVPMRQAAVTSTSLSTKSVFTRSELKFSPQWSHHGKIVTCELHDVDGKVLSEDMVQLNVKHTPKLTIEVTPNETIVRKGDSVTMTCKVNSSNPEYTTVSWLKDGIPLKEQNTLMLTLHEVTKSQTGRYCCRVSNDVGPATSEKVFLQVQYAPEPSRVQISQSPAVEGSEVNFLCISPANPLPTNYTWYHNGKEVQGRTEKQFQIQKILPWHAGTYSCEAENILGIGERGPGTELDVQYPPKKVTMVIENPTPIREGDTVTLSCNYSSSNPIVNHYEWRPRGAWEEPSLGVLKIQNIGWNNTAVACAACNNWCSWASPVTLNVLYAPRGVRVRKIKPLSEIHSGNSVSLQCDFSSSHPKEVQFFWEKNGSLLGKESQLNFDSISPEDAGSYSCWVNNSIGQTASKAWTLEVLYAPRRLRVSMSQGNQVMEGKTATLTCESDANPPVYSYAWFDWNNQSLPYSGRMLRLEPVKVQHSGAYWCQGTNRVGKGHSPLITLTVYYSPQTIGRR
# test.protocol: SPR (Biacore), antibody captured on Protein A chip, rhesus CD22 in solution
reported.endpoint: kon (M⁻¹ s⁻¹)
Your answer should be a plain number; it is taken to be in M⁻¹ s⁻¹.

// returns reported kon for input F2.205.9 (antibody, human IgG1, lambda, V domains shown, Chimeric IgG1 lambda) VH: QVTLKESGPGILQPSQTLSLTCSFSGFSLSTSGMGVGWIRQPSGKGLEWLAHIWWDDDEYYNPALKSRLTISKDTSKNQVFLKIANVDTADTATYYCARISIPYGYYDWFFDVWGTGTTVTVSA VL: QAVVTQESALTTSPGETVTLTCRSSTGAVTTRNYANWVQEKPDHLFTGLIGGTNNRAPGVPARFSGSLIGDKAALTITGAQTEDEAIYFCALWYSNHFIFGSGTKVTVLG
135000

Now give it for F1.224.1 (antibody, human IgG1, kappa, V domains shown, Chimeric IgG1 kappa) VH: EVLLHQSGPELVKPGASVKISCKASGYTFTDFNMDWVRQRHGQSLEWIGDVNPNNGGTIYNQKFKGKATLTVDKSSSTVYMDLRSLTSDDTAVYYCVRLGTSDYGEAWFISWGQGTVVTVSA VL: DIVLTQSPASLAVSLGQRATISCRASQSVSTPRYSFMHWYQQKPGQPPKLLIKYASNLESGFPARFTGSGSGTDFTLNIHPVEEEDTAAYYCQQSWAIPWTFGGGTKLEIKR too.
52300

Now give it for F2.173.9 (antibody, human IgG1, lambda, V domains shown, Chimeric IgG1 lambda) VH: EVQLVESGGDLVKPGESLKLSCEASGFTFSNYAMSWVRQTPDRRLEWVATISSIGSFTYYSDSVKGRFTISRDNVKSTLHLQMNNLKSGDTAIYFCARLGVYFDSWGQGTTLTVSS VL: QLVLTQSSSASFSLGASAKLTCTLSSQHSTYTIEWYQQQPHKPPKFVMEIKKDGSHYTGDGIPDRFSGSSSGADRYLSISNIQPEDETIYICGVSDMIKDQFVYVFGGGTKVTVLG too.
18900
